Origin of the recorded values: BigSolDB 2.1

Conditions: in ethyl acetate, 318.15 K
experimental_endpoint: solubility (mole fraction)

Task: Value lookup for solubility (mole fraction); key = CONC(=O)Nc1ccc(-c2sc3c(c2CN(C)C)c(=O)n(-c2ccc(OC)nn2)c(=O)n3Cc2c(F)cccc2F)cc1
Result: 0.000539

----------
Conditions: in ethanol, 308.15 K
experimental_endpoint: solubility (mole fraction)
The answer should be a number; do not append a unit.

Task: I'd like to know its solubility (mole fraction). The molecule in question is CONC(=O)Nc1ccc(-c2sc3c(c2CN(C)C)c(=O)n(-c2ccc(OC)nn2)c(=O)n3Cc2c(F)cccc2F)cc1
Result: 0.000171
